# system.under.test: Full length wild-type cereblon CRBN (Homo sapiens, UniProt Q96SW2)
# Construct: Full length wild-type cereblon CRBN (80.0 nM, 10 μL) was incubated in assay buffer
# Sequence (Q96SW2 whole entry): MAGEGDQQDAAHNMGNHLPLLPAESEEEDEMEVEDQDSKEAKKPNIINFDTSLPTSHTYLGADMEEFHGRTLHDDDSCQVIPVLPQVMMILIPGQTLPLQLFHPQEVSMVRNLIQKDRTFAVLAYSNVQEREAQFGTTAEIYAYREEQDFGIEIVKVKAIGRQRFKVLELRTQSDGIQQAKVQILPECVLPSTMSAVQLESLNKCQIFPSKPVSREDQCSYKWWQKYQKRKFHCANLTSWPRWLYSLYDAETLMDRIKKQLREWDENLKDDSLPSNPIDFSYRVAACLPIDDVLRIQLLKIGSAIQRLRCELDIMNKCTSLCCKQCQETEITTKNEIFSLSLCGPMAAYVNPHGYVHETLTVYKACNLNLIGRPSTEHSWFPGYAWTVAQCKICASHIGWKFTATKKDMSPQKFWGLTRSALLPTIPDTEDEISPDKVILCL
# test: Fluorescence polarization (FP) assay, cereblon binding
# condition.notes: cereblon binding, class code; read-out: rFP IC50
pIC50: −log10 of the molar value.
experimental.readout: pIC50

Solved entries:
CCc1cc(NC(=O)OCc2ccc3c(c2)C(=O)N(C2CCC(=O)NC2=O)C3)cc(C)n1 (stereo not shown)
5.77 to 5.96
CCc1cc(NC(=O)OCc2ccc3c(c2)C(=O)N(C2CCC(=O)NC2=O)C3)cnc1C (stereo not shown)
5.96 to 6.30
O=C1CCC(N2Cc3ccc(COC(=O)Nc4ccc5c(c4)OC(F)(F)O5)cc3C2=O)C(=O)N1 (stereo not shown)
5.77 to 5.96

Quick batch: pIC50 for everything below.
1. O=C1CCC(N2Cc3ccc(COC(=O)Nc4ccc(N5CCCCC5)nc4)cc3C2=O)C(=O)N1 (stereo not shown)
2. Cc1c(F)cc(NC(=O)OCc2ccc3c(c2)C(=O)N(C2CCC(=O)NC2=O)C3)cc1F (stereo not shown)
3. CCc1cc(NC(=O)OCc2ccc3c(c2)C(=O)N(C2CCC(=O)NC2=O)C3)sn1 (stereo not shown)
4. COc1ccccc1CNC(=O)OCc1ccc2c(c1)C(=O)N(C1CCC(=O)NC1=O)C2 (stereo not shown)
5. O=C1CCC(N2Cc3ccc(COC(=O)Nc4ccc5c(c4)OCC5)cc3C2=O)C(=O)N1 (stereo not shown)
6. COc1ccc(Cl)cc1NC(=O)OCc1ccc2c(c1)C(=O)N(C1CCC(=O)NC1=O)C2 (stereo not shown)
7. O=C1CCC(N2Cc3ccc(COC(=O)Nc4ccc(N5CCOCC5)nc4)cc3C2=O)C(=O)N1 (stereo not shown)
8. O=C1CCC(N2Cc3ccc(COC(=O)Nc4cc(Cl)cc(OC5CCNC5)c4)cc3C2=O)C(=O)N1 (stereo not shown)

["5.96 to 6.30", "5.77 to 5.96", "> 6.30", "5.96 to 6.30", "5.96 to 6.30", "5.77 to 5.96", "5.96 to 6.30", "5.77 to 5.96"]

Quick batch: pIC50 for everything below.
1. Cc1cc(F)cc(NC(=O)OCc2ccc3c(c2)C(=O)N(C2CCC(=O)NC2=O)C3)c1 (stereo not shown)
2. O=C1CCC(N2Cc3ccc(COC(=O)Nc4ccc(C5CC5)cc4)cc3C2=O)C(=O)N1 (stereo not shown)
3. CCc1ncc(NC(=O)OCc2ccc3c(c2)C(=O)N(C2CCC(=O)NC2=O)C3)cc1C (stereo not shown)
4. Cc1ncc(NC(=O)OCc2ccc3c(c2)C(=O)N(C2CCC(=O)NC2=O)C3)cc1OC(F)(F)F (stereo not shown)
5. O=C1CCC(N2Cc3ccc(COC(=O)Nc4cccc(OC(F)F)c4)cc3C2=O)C(=O)N1 (stereo not shown)

1: 5.77 to 5.96; 2: 5.96 to 6.30; 3: 5.77 to 5.96; 4: 5.96 to 6.30; 5: 5.77 to 5.96

---

# system.under.test: Full length wild-type cereblon CRBN (Homo sapiens)
# Construct: Full length wild-type cereblon CRBN (80.0 nM, 10 μL) was incubated in assay buffer
# test: Fluorescence polarization (FP) assay, cereblon binding
# condition.notes: bounds stated in the text lists b2059-b2061; read-out: IC50 value
Please respond with reported IC50 for every item in the list.

Quick batch: IC50 for everything below.
1. O=C1CCC(N2Cc3ccc(COC(=O)Nc4ccc(C5(F)CC5)cc4)cc3C2=O)C(=O)N1 (stereo not shown)
2. O=C1CCC(N2Cc3ccc(COC(=O)Nc4cnc(N5CCCCC5)nc4)cc3C2=O)C(=O)N1 (stereo not shown)
3. CC(C)(C)c1ccc(NC(=O)OCc2ccc3c(c2)C(=O)N(C2CCC(=O)NC2=O)C3)cc1 (stereo not shown)

1: < 500 nM; 2: < 1700 nM; 3: < 1700 nM

Look at this molecule and give its reported IC50. O=C1CCC(N2Cc3ccc(COC(=O)NC45CC(c6ccccc6)(C4)C5)cc3C2=O)C(=O)N1 (stereo not shown)
< 1100 nM

meta.source: patent US20230348418A1
